Molecular target: human V1a receptor (Homo sapiens (Human))
Sequence (P37288 whole entry): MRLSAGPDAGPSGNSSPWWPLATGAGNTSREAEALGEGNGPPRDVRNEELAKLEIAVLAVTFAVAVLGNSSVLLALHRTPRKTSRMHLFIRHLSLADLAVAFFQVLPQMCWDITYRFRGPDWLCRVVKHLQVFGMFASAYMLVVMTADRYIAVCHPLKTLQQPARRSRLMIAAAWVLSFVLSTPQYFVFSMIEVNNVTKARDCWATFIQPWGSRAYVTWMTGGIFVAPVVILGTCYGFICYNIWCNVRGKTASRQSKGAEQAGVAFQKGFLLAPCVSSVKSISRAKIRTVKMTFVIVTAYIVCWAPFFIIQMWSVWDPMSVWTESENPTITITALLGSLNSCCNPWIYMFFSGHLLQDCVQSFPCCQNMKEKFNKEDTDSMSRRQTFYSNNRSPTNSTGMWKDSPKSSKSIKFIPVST
Test: human V1a receptor binding studies (3H-Vasopressin, SPA beads)
Settings: membranes of HEK293 cells transiently transfected with human V1a receptor, Ki by Cheng-Prussoff
observationType: pKi hV1a

1) C/C(=C1\SC(N2CCC3(CC2)OCc2ccccc23)=NC1=O)C1CCCCC1 [Example 28] | 7.9
2) O=C1N=C(N2CCC3(CC2)OCc2ccccc23)S/C1=C1/CCc2cc(Cl)ccc21 [Example 10] | 6.9
3) O=C1N=C(N2CCC3(CC2)OCc2ccccc23)S/C1=C(/c1ccc(Cl)cc1)C(F)(F)F [Example 17] | 8.5
4) COCC(COC)=C1SC(N2CCC3(CC2)OCc2ccccc23)=NC1=O [Example 15] | 8.8
5) CC(C)(C)OC(=O)N1CCC(=C2SC(N3CCC4(CC3)OCc3ccccc34)=NC2=O)CC1 [Example 41] | 7.6
6) CC(C)C(=C1SC(N2CCC3(CC2)OCc2ccccc23)=NC1=O)C(C)C [Example 120] | 8.8
7) COC1CCCC/C1=C1/SC(N2CCC3(CC2)OCc2ncccc23)=NC1=O (stereo not shown) [Example 164] | 6.9
8) O=C1N=C(N2CCC3(CC2)OC(=O)c2ccccc23)S/C1=C(\CO)c1ccccc1 [Example 142] | 8.4
9) O=C1N=C(N2CCC3(CC2)OCc2ccccc23)S/C1=C(\c1ccc(Cl)cc1)C(F)(F)F [Example 18] | 9.1
10) O=C1N=C(N2CCC3(CC2)OCc2ccccc23)S/C1=C1/CC2C3CC4C2C4C13 (stereo not shown) [Example 55] | 8.3
11) C/C(=C1/SC(N2CCC3(CC2)OCc2ccccc23)=NC1=O)c1ccc(Cl)nc1 [Example 49] | 9.1
12) C/C(=C1/SC(N2[C@@H]3CC[C@H]2C[C@@]2(C3)OC(=O)c3ccccc32)=NC1=O)c1ccc(Cl)cc1 [Example 5] | 8.9
13) C/C(=C1/SC(N2CCC3(CC2)OCc2ccccc23)=NC1=O)c1ccccc1 [Example 151] | 9.2
14) C/C(=C1\SC(N2CCC3(CC2)OCc2ccccc23)=NC1=O)c1ccc(Cl)cc1 [Example 27] | 8.3
15) CC(C)/C(=C1\SC(N2CCC3(CC2)OCc2ccccc23)=NC1=O)c1ccc(Cl)nc1 [Example 132] | 7.8
16) C/C(=C1/SC(N2CCC3(CC2)OCc2ccccc23)=NC1=O)c1ccccc1 [Example 16] | 8.5
17) O=C1N=C(N2CCC3(CC2)OCc2ccccc23)SC1=C1CCOCC1 [Example 44] | 8.1
18) C/C(=C1/SC(N2CCC3(CC2)OCc2ccccc23)=NC1=O)c1ccncc1F [Example 158] | 8.4
19) C/C(=C1\SC(N2CCC3(CC2)OC(=O)c2ccccc23)=NC1=O)c1ccccc1 [Example 157] | 7.8
20) O=C1N=C(N2CCC3(CC2)OCc2ccccc23)SC1=C1Cc2ccccc2C1 [Example 161] | 7.8
21) C/C(=C1/SC(N2CCC3(CC2)OCc2ccccc23)=NC1=O)c1cnn(C)c1 [Example 62] | 8.3
22) CCCC(CCC)=C1SC(N2CCC3(CC2)OCc2ccccc23)=NC1=O [Example 114] | 8.9
23) O=C1N=C(N2CCC3(CC2)OCc2ccccc23)S/C1=C1/CCc2cc(O)ccc21 [Example 54] | 7.5
24) C/C(=C1/SC(N2CCC3(CC2)OCc2ccccc23)=NC1=O)c1ccc(Cl)nc1 [Example 96] | 9.4
25) O=C1N=C(N2CCC3(CC2)OCc2ccccc23)SC1=C(c1cccnc1)c1cccnc1 [Example 119] | 7.6
26) CC(C)(C)OC(=O)N1CCC/C(=C2/SC(N3CCC4(CC3)OCc3ccccc34)=NC2=O)C1 [Example 88] | 6.7
27) O=C1N=C(N2CCC3(CC2)OCc2ccccc23)SC1=C(C1CC1)C1CC1 [Example 115] | 8.9
28) COC1CCCC/C1=C1/SC(N2CCC3(CC2)OCc2ccccc23)=NC1=O (stereo not shown) [Example 73] | 8.8
29) Cc1cc(/C=C2\SC(N3CCC4(CC3)OCc3ccccc34)=NC2=O)no1 [Example 91] | 7.5
30) O=C1N=C(N2CCC3(CC2)OCc2ccccc23)SC1=C1c2ccccc2Sc2ccccc21 [Example 102] | 8.6
31) CC/C(=C1/SC(N2CCC3(CC2)OCc2ccccc23)=NC1=O)c1cc(C)on1 [Example 64] | 8.6
32) COc1ccc(/C(C)=C2\SC(N3CCC4(CC3)OCc3ccccc34)=NC2=O)cn1 [Example 85] | 8.4
33) C/C(=C1/SC(N2CCC3(CC2)OC(=O)c2ccccc23)=NC1=O)c1ccccc1 [Example 156] | 9.3
34) O=C1N=C(N2CCC3(CC2)OCc2ccccc23)S/C1=C(\c1ccc(Cl)cc1)C1CC1 [Example 22] | 7.8
